Attribution: patent US9040506B2

- system tested: rh-BuChE (Homo sapiens)
- Sequence (P06276 29-602): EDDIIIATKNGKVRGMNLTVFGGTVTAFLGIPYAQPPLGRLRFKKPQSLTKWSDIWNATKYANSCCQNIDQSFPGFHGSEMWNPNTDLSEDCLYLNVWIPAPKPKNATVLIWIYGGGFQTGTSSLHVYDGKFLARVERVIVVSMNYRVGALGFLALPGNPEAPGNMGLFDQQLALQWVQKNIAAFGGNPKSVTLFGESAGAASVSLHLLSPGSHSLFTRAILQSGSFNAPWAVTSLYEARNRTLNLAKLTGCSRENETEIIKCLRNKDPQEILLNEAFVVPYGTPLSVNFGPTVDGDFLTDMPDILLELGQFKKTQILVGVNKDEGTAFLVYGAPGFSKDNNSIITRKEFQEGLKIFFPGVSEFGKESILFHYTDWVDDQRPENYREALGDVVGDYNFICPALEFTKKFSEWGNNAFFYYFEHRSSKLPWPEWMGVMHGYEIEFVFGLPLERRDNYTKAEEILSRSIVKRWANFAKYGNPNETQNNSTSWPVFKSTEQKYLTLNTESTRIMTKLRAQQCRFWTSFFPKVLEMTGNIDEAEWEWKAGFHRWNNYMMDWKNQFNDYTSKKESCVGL
- assay protocol: IC50 rh-BuChE
- Assay type: biochemical
- measurement context: read-out: IC50 rh-BuChE
For each entry below, report its IC50 value.
The number alone won't do; follow it with the unit.

For orientation, consider the following solved cases.
COc1cc2c(cc1OC)C(c1ccccc1)N(CCCCc1cn(CCCCC3=CC4Cc5nc6cc(Cl)ccc6c(N)c5C(C3)C4)nn1)CC2 (stereo not shown) [HUP32-PIQ4, Ditrifluoroacetic Acid]    9.5 nM
Nc1c2c(nc3ccccc13)CC1C=C(CCCCn3cc(CO)nn3)CC2C1 (stereo not shown) [HUP 38, Trifluoroacetic Acid]    357 nM
[N-]=[N+]=NCCC1=CC2Cc3nc4cc(Cl)ccc4c(N)c3C(C1)C2 (stereo not shown) [HUP 12]    522 nM
CS(=O)(=O)OCCC1=CC2Cc3nc4cc(Cl)ccc4c(N)c3C(C1)C2 (stereo not shown) [HUP 13]    415 nM
COC(=O)c1cn(CCCCC2=CC3Cc4nc5cc(Cl)ccc5c(N)c4C(C2)C3)nn1 (stereo not shown) [HUP 33]    291 nM

Could you report IC50 for every entry in the following list?
1. C=CC(=O)OCCC1=CC2Cc3nc4cc(Cl)ccc4c(N)c3C(C1)C2 (stereo not shown) [HUP 18]
2. NC(=O)OCCC1=CC2Cc3nc4cc(Cl)ccc4c(N)c3C(C1)C2 (stereo not shown) [HUP 17, Trifluoroacetic Acid]
3. Nc1c2c(nc3cc(Cl)ccc13)CC1C=C(CCCCO)CC2C1 (stereo not shown) [HUP 30]

["207 nM", "413 nM", "343 nM"]

I have 6 molecules here; please give me IC50 for each one.
1. COc1cc2c(cc1OC)C(c1ccccc1)N(Cc1cn(CCCCC3=CC4Cc5nc6cc(Cl)ccc6c(N)c5C(C3)C4)nn1)CC2 (stereo not shown) [HUP32-PIQ1, Ditrifluoroacetic Acid]
2. COc1cc2c(cc1OC)C(c1ccccc1)N(CCCc1cn(CCCCC3=CC4Cc5nc6cc(Cl)ccc6c(N)c5C(C3)C4)nn1)CC2 (stereo not shown) [HUP32-PIQ3, Ditrifluoroacetic Acid]
3. Nc1c2c(nc3cc(Cl)ccc13)CC1C=C(CCF)CC2C1 (stereo not shown) [HUP 10]
4. CS(=O)(=O)OCCC1=CC2Cc3nc4ccccc4c(N)c3C(C1)C2 (stereo not shown) [HUP 39]
5. CCOC(=O)CC1=CC2Cc3nc4cc(Cl)ccc4c(N)c3C(C1)C2 (stereo not shown) [HUP 1]
6. C=CC1=CC2Cc3nc4cc(Cl)ccc4c(N)c3C(C1)C2 (stereo not shown) [HUP 3, Trifluoroacetic Acid]

1. 20.6 nM
2. 11.4 nM
3. 522 nM
4. 171 nM
5. 137 nM
6. 180 nM

Please go through the list and note IC50 for each molecule.
1. Nc1c2c(nc3cc(Cl)ccc13)CC1C=C(CCOC(=O)C(F)(F)F)CC2C1 (stereo not shown) [HUP 5]
2. CS(=O)(=O)OCCCCC1=CC2Cc3nc4cc(Cl)ccc4c(N)c3C(C1)C2 (stereo not shown) [HUP 31]

1: 1360 nM; 2: 243 nM

---

- system tested: rh-AChE (Homo sapiens, UniProt P22303)
- Sequence (P22303 32-614): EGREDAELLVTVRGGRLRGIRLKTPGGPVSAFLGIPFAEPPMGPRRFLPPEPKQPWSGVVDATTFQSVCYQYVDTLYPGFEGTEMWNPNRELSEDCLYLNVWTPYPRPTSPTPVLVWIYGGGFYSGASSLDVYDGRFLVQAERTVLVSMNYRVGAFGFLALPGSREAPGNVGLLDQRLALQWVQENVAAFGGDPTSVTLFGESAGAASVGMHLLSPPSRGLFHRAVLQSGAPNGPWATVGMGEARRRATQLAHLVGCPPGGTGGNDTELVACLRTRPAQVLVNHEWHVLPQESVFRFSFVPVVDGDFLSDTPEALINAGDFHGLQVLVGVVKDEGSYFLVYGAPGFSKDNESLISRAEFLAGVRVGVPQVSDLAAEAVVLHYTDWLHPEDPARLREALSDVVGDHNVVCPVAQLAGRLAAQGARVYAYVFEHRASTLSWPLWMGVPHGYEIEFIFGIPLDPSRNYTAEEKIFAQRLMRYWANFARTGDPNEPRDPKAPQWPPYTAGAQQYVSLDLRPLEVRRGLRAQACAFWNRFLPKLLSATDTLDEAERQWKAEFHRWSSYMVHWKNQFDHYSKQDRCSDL
- assay protocol: biochemical
- measurement context: read-out: IC50 rh-AChE
pIC50: −log10 of the molar value.
Could you label it yes (1) if measured pIC50 is 8 or higher, and no (0) otherwise?

Nc1c2c(nc3cc(Cl)ccc13)CC1C=C(CCCCn3cc(CO)nn3)CC2C1 (stereo not drawn)    yes (1)
Nc1c2c(nc3cc(Cl)ccc13)CC1C=C(CCCCO)CC2C1 (stereo not drawn)    no (0)

Proceed to the following item.
In plain terms: is recorded pIC50 at least 8 for COc1cc2c(cc1OC)C(c1ccccc1)N(CCCc1cn(CCCCC3=CC4Cc5nc6cc(Cl)ccc6c(N)c5C(C3)C4)nn1)CC2 (stereo not drawn) ?
yes (1)
